The origin of these recorded values is patent US11723362B2.

Reported values of MIC for individual entries
System: C. albicans
test-protocol: Minimum inhibitory concentration (MIC) in Mueller-Hinton broth, pH 7.4
Format: cell-based, Candida albicans
measured-attribute: MIC (wt %)

- Cl.NOCc1ccccc1 [O-benzylhydroxylamine HCl]: 0.5
- Cl.ONCc1ccccc1 [N-benzylhydroxylamine HCl]: 0.5
- O=C(CCCCCCC(=O)NO)NO [Suberohydroxamic acid]: 0.5
- Cl.NOc1ccccc1 [O-phenylhydroxylamine HCl]: 0.1
- CCO [Ethanol]: 10
- CCCCCCCC(=O)NO [Caprylhydroxamic acid (CHA), Caprylhydroxamic acid]: 0.03
- Oc1ccccc1 [Phenol]: 0.2
- O=C(NO)c1ccccc1 [Benzhydroxamic acid 1, Benzhydroxamic acid]: 0.03
- CC(=O)O [Acetic acid]: 0.2
- O=C(O)c1ccccc1O [Salicylic acid]: 0.5
- O=C(O)c1ccccc1 [Benzoic acid]: 0.2
